Target: Nuclear receptor ROR-beta (Homo sapiens)
Sequence (Q92753 whole entry): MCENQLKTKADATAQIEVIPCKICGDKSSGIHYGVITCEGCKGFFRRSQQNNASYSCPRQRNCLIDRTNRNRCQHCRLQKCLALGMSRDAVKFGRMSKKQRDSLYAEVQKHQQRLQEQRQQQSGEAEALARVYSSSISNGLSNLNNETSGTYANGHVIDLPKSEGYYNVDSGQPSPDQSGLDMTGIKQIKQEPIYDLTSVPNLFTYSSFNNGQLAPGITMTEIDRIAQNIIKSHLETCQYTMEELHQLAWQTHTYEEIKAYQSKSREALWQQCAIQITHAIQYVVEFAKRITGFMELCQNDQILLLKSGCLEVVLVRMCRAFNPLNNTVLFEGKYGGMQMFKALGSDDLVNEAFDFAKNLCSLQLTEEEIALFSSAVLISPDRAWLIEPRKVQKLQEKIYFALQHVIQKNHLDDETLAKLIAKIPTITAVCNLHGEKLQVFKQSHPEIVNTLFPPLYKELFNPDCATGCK
Assay: Inverse agonist activity at human ROR-beta1 transfected in HEK293 cells after 16 hrs by luciferase reporter gene assay

{"columns": ["structure.smiles.string", "IC50"],
 "data": [
  ["CCCCn1c(=O)c2ccccc2c2cc(C(O)(C(F)(F)F)C(F)(F)F)ccc21", "5.7 µM"]
]}

* * *

Biological target: Nuclear receptor ROR-alpha (Homo sapiens)
Sequence (P35398 whole entry): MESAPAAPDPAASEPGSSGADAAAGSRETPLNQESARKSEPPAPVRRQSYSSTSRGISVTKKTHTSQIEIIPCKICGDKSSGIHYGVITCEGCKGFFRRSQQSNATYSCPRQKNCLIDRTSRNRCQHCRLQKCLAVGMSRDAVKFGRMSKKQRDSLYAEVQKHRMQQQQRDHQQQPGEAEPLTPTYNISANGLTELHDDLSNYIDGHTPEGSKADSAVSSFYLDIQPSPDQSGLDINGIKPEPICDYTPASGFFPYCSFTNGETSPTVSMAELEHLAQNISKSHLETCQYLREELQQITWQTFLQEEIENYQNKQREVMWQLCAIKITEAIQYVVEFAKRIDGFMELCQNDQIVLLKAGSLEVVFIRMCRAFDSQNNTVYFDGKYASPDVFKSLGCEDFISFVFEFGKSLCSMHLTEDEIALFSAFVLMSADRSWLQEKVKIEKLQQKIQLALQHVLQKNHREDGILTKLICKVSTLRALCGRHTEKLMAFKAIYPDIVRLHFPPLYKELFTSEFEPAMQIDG
Test: Inverse agonist activity at human ROR-alpha1 transfected in HEK293 cells after 16 hrs by luciferase reporter gene assay
pIC50: −log10 of the molar value.

{"columns": ["structure.smiles.string", "pIC50"],
 "data": [
  ["CCCCn1c(=O)c2ccccc2c2cc(C(O)(C(F)(F)F)C(F)(F)F)ccc21", 5.14]
]}
